MEASURED_ON: CDK2/cyclin E (Homo sapiens)
MEASUREMENT_PROTOCOL: CDK inhibition assay, CDK2/cyclin E
MEASUREMENT_NAME: IC50

- COMPOUND: "CC(C)n1cnc2c(NCc3cc(F)ccc3N)nc(NC3CCCCC3N)nc21 (stereo not shown)"
  MEASURED_ON: "CDK2/cyclin E (Homo sapiens)"
  MEASUREMENT_NAME: "IC50"
  ENDPOINT_VALUE: "100 nM"
- COMPOUND: "CC(C)n1cnc2c(NCc3ccccc3)nc(NC3CCC(N)CC3)nc21 (stereo not shown)"
  MEASURED_ON: "CDK2/cyclin E (Homo sapiens)"
  MEASUREMENT_NAME: "IC50"
  ENDPOINT_VALUE: "500 nM"
- COMPOUND: "Nc1ccccc1CNc1nc(NC2CCC(N)CC2)nc2c1ncn2C1CCCCC1 (stereo not shown)"
  MEASURED_ON: "CDK2/cyclin E (Homo sapiens)"
  MEASUREMENT_NAME: "IC50"
  ENDPOINT_VALUE: "300 nM"
- COMPOUND: "CCC(CO)Nc1nc(NCc2cc(Cl)ccc2N)c2ncn(C3CCCCC3)c2n1 (stereo not shown)"
  MEASURED_ON: "CDK2/cyclin E (Homo sapiens)"
  MEASUREMENT_NAME: "IC50"
  ENDPOINT_VALUE: "300 nM"
- COMPOUND: "CCCCCCCNc1nc(NCc2ccccc2)c2ncn(C(C)C)c2n1"
  MEASURED_ON: "CDK2/cyclin E (Homo sapiens)"
  MEASUREMENT_NAME: "IC50"
  ENDPOINT_VALUE: "165000 nM"
- COMPOUND: "Cn1cnc2c(NCc3ccccc3N)nc(NC3CCC(N)CC3)nc21 (stereo not shown)"
  MEASURED_ON: "CDK2/cyclin E (Homo sapiens)"
  MEASUREMENT_NAME: "IC50"
  ENDPOINT_VALUE: "400 nM"
- COMPOUND: "Cc1cccc(CNc2nc(NC3CCC(N)CC3)nc3c2ncn3C(C)C)c1N (stereo not shown)"
  MEASURED_ON: "CDK2/cyclin E (Homo sapiens)"
  MEASUREMENT_NAME: "IC50"
  ENDPOINT_VALUE: "70 nM"
